Reference source for all entries: patent US20060194969A1

assay endpoint: melting point

Cc1nc2c(O[C@@H]3c4ccccc4C[C@H]3O)cc(C(=O)NC3CC3)cc2n1C (relative stereo) ... 148 to 149 °C
CCOC(=O)c1cc(NCc2c(C)cccc2CC)c2nc(C)n(C)c2c1 ... 171 to 173 °C

In: Consider the compound CCc1cccc(C)c1COc1cc(C(=O)OC)cc2c1nc(C)n2C and give its recorded melting point.
Out: 157 °C

In: Consider the compound CCc1cccc(C)c1CNc1cc(C(=O)NCCO)cc2c1nc(C)n2C and give its recorded melting point.
Out: 200 to 201 °C

----------
molecules and their reported melting point

Known melting point results, listed for orientation:
CCOC(=O)c1cc(NCc2c(C)cccc2C)c2nc(COC)n(C)c2c1 [Example 30] ... 134 to 135 °C
Cc1cccc(C)c1CNc1cc(C(=O)N(C)CCO)cc2c1nc(C)n2C [Example 56] ... 177 to 178 °C
COCc1nc2c(NCc3c(C)cccc3C)cc(C(=O)N(C)C)cc2n1C [Example 43] ... 156 to 157 °C

In: Consider the molecule Cc1cccc(CO)c1CNc1cc(C(=O)N(C)C)cc2c1nc(C)n2C [Example 70] and give its recorded melting point.
Out: 197 to 198 °C

In: Consider the molecule Cc1nc2c(OCc3ccccc3)cc(C(=O)N(C)C)cc2n1C [Example 7] and give its recorded melting point.
Out: 159 to 160 °C

In: Consider the molecule CCc1cccc(C)c1CNc1cc(C(=O)O)cc2c1nc(COC)n2C [Example 33] and give its recorded melting point.
Out: 275 to 278 °C

----------
molecules and their reported melting point

Known melting point results, listed for orientation:
Cc1cccc(C)c1CNc1cc(C2=NCCO2)cc2c1nc(C)n2C ... 235 °C
Cn1c(C2CC2)nc2c(O[C@@H]3c4ccccc4C[C@H]3O)cc(C(=O)O)cc21 (relative stereo) ... 132 to 134 °C

In: Consider the molecule Cc1nc2c(O[C@@H]3c4ccc(Cl)cc4C[C@H]3O)cc(C(=O)N(C)C)cc2n1C.O=C(O)C(=O)O (relative stereo) and give its recorded melting point.
Out: 158 to 159 °C

----------
assay endpoint: melting point

Known melting point results, listed for orientation:
CCc1cccc(C)c1CNc1cc(C(=O)N(C)C)cc2c1nc(COC)n2C [Example 42] ... 154 °C
CO[C@@H]1Cc2ccccc2[C@H]1Oc1cc(C(=O)N(C)C)cc2c1nc(C)n2C.O=C(O)C(=O)O (relative stereo) [Example 12] ... 126 to 127 °C
Cc1ccccc1CNc1cc(C(=O)N(C)C)cc2c1nc(C)n2C [Example 61] ... 158 to 159 °C

Now consider the entry below.
In: Consider the compound COCc1nc2c(NCc3c(C)cccc3C)cc(C(=O)NCCO)cc2n1C [Example 37] and give its recorded melting point.
Out: 186 to 187 °C

----------
compounds and their reported melting point

Known melting point results, listed for orientation:
Cc1cccc(C)c1CNc1cc(C(=O)N2CC2)cc2c1nc(C)n2C ... 201 to 202 °C
CCc1cccc(C)c1CNc1cc(C(N)=O)cc2c1nc(C)n2C ... 240 to 241 °C
CCOC(=O)c1cc(OCc2ccccc2)c2nc(C)n(C)c2c1 ... 152 °C
Cc1cccc(C)c1CNc1cc(C(=O)N(C)C)cc2c1nc(CO)n2C ... 171 to 172 °C

In: Consider the compound Cc1cccc(C)c1CNc1cc(S(=O)(=O)N(C)C)cc2c1nc(C)n2C and give its recorded melting point.
Out: 237 to 238 °C
